method: Primary qHTS for delayed death inhibitors of the malarial parasite plastid, 48 hour incubation
stated-conditions: P. falciparum luciferase growth in erythrocytes; series mostly up to 28.7 µM
The campaign covered roughly 310,000 compounds. About 18,000 (5.8%) were called active. Not shown: some 22% with an inconclusive outcome. The call rests on the fitted dose curve; in most records, active means well fitted inhibition curve with a large enough effect; inconclusive means small, poorly fitted or top-dose-only effect, or another doubt; inactive means no such curve, though single readings can be large or run the other way. Only a selection was taken, and actives are over-represented in it overall.
Possible outcomes: 1 = active, 0 = inactive

compound="CCN(C(=O)COC(=O)c1cc(S(=O)(=O)N2CCc3ccccc32)ccc1OC)C1CCS(=O)(=O)C1 (stereo unspecified)" cat=0
compound=COc1cc(OC)c(S(=O)(=O)Nc2ccccc2C(=O)O)cc1S(=O)(=O)Nc1ccccc1C(=O)O cat=0
compound=O=C(c1ccc(Cl)c(Cl)c1)N1CCCC1 cat=0
compound="CC1CC(C)CN(C(=O)C2CC(=O)N(c3ccc(F)cc3)C2)C1 (stereo unspecified)" cat=0
compound="O=C(Nc1ccc(S(=O)(=O)NCC2CCCO2)cc1)c1ccc(F)cc1 (stereo unspecified)" cat=0
compound=O=C(N[C@@H](Cc1ccccc1)C(=O)OCc1ccccc1)c1nc[nH]c1C(=O)N[C@@H](Cc1ccccc1)C(=O)OCc1ccccc1 cat=0
compound=O=S(=O)(Nc1ccc2nc(N3CCOCC3)sc2c1)c1ccccc1 cat=0
compound=COc1cccc(CNc2ncc(-c3ccccc3)n2C)c1 cat=0
compound=CCC1=C(OC(=O)N(CC)CC)N2C(=O)OC(=NCC3CC3)[C@]2(C)[C@H]2C1=CC[C@H]1C(=O)N(CC(=O)OC)C(=O)[C@H]12 cat=0
compound="CN1CCN(C(CNS(=O)(=O)c2cccs2)c2cccnc2)CC1 (stereo unspecified)" cat=0
compound=O=C(c1cccnc1)N1CCN(S(=O)(=O)c2cccs2)CC1 cat=0
compound=Cn1cccc1C(=O)N1CCc2ccccc2C1 cat=0
compound=Cc1ccc(C(=O)Nc2ccc3c(c2)OCO3)cc1S(=O)(=O)N1CCCCC1 cat=0
compound=Cc1ccc(NC(=O)Cn2c(C)csc2=O)cc1 cat=0
compound=Cc1cccc(OCC(=O)NCCNC(=O)c2cccnc2)c1 cat=0
compound=COc1ccc(-c2csc(NC(=O)CCCc3cccs3)n2)cc1 cat=0
compound=CCC1=C(OC(=O)N(CC)CC)N2C(=O)OC(=NCCc3c[nH]c4ccccc34)[C@]2(C)[C@H]2C1=CC[C@H]1C(=O)N(CC)C(=O)[C@H]12 cat=1
compound=CCNC(=S)N(CCN(CC)CC)Cc1cc2cc3c(cc2[nH]c1=O)OCCO3 cat=0
compound=O=C(CSc1nc2ccccc2c(=O)[nH]1)Nc1nc(-c2ccc(Br)cc2)cs1 cat=0
compound=C=CCn1c(=NC(=O)c2cccs2)sc2cc(NC(C)=O)ccc21 cat=0
compound=Cc1ccc(NC(=O)COC(=O)CN2CCCCCC2=O)c(C)c1 cat=0
compound=Cc1cnc(NC(=O)c2ccc(Cl)nc2)s1 cat=0
compound="Cc1c(C(=O)N2CCCC2)c(S(=O)(=O)NCC(C)c2ccccc2)c(C)n1C (stereo unspecified)" cat=0
compound=C=CCn1c(=NC(=O)c2ccc(S(=O)(=O)N3CCCC3)cc2)sc2cc(NC(C)=O)ccc21 cat=1
compound="COc1cc(C(C)=O)ccc1OC(C)C(=O)Nc1ccc(S(=O)(=O)N2CCCC2)cc1 (stereo unspecified)" cat=0
compound=COc1ccc(C(=O)c2c(C)c(CCC#N)n3ccccc23)c(OC)c1 cat=0
compound="COc1ccc(OC)c(C2N(c3ccccn3)C(=O)C3CCCN32)c1 (stereo unspecified)" cat=0
compound="CNS(=O)(=O)c1ccc(NC(=O)C2CC(=O)N(c3ccc(Cl)cc3)C2)cc1 (stereo unspecified)" cat=0
compound=CCc1noc(C)c1C(=O)N1CCN(S(=O)(=O)c2cccc(C(F)(F)F)c2)CC1 cat=0
compound=CC(=O)Nc1ccc(/C=C/C(=O)c2ccccc2)cc1 cat=0
compound=Cc1cc(C)c(-c2csc(NC(=O)CCCc3nc4ccccc4c(=O)[nH]3)n2)c(C)c1 cat=1
compound=CC(=O)c1ccc(S(=O)(=O)Nc2ccc(-c3ccc4nncn4n3)cc2)cc1 cat=0
compound="CCC(C)c1ccccc1N1CC(C(=O)N2CCN(S(=O)(=O)c3ccc(F)cc3)CC2)CC1=O (stereo unspecified)" cat=1
compound="CC(Sc1ncnc2c1cnn2-c1ccccc1)C(=O)Nc1ccc(N2CCOCC2)cc1 (stereo unspecified)" cat=0
compound=O=C(Nc1ccc2c(c1)OCCO2)c1ccc(Cl)c(S(=O)(=O)N2CCCCC2)c1 cat=1
compound="CC(/C=C/c1ccccc1)=N\\NC(=O)C1CC1(C)c1ccccc1 (stereo unspecified)" cat=1
compound="COc1cccc(OCc2nnc3n2N=C(c2ccccc2)C(CC(=O)O)S3)c1 (stereo unspecified)" cat=0
compound="CCCCN1C(=O)C(C)=C(C)C1OCCc1ccc(OC)c(OC)c1 (stereo unspecified)" cat=0
compound=COc1cccc(NC(=O)c2cc(S(=O)(=O)N3CCc4ccccc43)cn2C)c1 cat=0
compound=CC(=O)NCc1ccc(-c2csc(NC(=O)CCCc3nc4ccccc4c(=O)[nH]3)n2)cc1 cat=1
compound=O=C(Nc1cccc(S(=O)(=O)N2CCCCC2)c1)c1ccc2c(c1)OCO2 cat=0
